Recorded mAb bound at 300 nM for the following binders
molecular target: T1, nanodisc embedded human CACNG1 expressed with a C-terminal PADRE-Flag-His tag (human, UniProt Q06432 1-222); experiment: SPR, anti-His-captured nanodisc, 25 C
T1 construct: Captured on an anti-His Biacore surface; also called human CACNG1 nanodisc; CACNG1 nanodisc; not shown: C-terminal tag
T1 sequence (Q06432 whole entry): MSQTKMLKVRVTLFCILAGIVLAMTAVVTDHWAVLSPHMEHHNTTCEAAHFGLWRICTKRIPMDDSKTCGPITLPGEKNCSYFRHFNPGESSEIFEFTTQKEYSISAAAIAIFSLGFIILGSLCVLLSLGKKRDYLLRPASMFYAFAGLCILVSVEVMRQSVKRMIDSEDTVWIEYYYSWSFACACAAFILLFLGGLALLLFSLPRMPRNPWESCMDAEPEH
Write down the numeric answer in RU and omit the unit.

>>> measured("REGN9909 (antibody, mouse IgG2a, kappa, V domains shown, mIgG2a) VH: EVQLLESGGGLVQPGGSLRLSCAASGFTFNNYGMSWVRQGPGKGLEWVSSISGSGGTTFYADSVKGRFTISRDNSKNTLYLQMNSLRAEDTAVYYCGKGGYCSSSGCRHYGMDVWGQGTTVTVSS VL: QSVLTQPPSASGTPGQRVTISCSGSSSNIGNNYIYWYQRLPGTTPKLLIYRNNQRPSGVPDRFSGSKSGTSASLAISGLRSEDEADYYCAAWDDTLSGYVFGTGTKVTVLR")
22
>>> measured("H2aM31941N (antibody, mouse IgG1, kappa, V domains shown, Both names are treated as one molecule; also called H1M31941N; lot H1M31941N-L1) VH: QVQLVQSGAEVKKPGASVKVSCKASGYAFTTYGITWVRQAPGQGLEWMGWISAYNGNTNYAEKVQGRFTMTTDTSTNTAYMELRSLRSDDTAVYFCARKGHYGSGTYYNPFGFDFWGQGTMVTVSS VL: EIMLMQSPGTLSLSPGERATLSCRASQSVSSSYLAWYQQKPGQAPRLLIYGASSRATDIPDRFSGSGSGTDFTLTISRLEPEDFAVYFCQQYYGSPWTFGQGTKVEIKR")
19
>>> measured("REGN10712 (antibody, human IgG4 S228P, lambda, V domains shown, hIgG4) VH: QVQLVESGGGVVQPGRSLRLSCAASGFTFSTYGMYWVRQTPGKGLEWVTVISFDGNKKYYADSVKGRFTISRDNSKNTLFLQMNSLKTEDTAVYYCAKSSNWNYGSFDIWGQGTMVTVSS VL: QSVLTQPPSVSGAPGQRVTISCTGSSSNIGAGYDVHWYQQLPGTAPRLLISYNSNRPSGVPDRFSGSKSGTSASLAITGLQAEDEADYYCQSYDRSLSGSVFGGGTQLTVLG")
31
>>> measured("REGN7660 (antibody, human IgG4 S228P, kappa, V domains shown, hIgG4) VH: EVQLVESGGGLVQPGGSLKLSCTASGLTLSDSAMHWVRQASGKGLEWVGRIRNKANRYATEYAASVKGRFTISRDDSKNTAYLQMNSLKTEDTAVYYCTRNWKIFLFDYWGQGTLVTVSS VL: EIVLTQSPGTLTLSPGERATLSCRASQSVGSKYLAWFQQKRGQAPRLLIYGASSRTSGIPDRISGSGSGTDFTLTISRLEPEDFAVYYCQQYGSSPWTFGQGTKVEIKR")
23
>>> measured("H2aM31944N (antibody, mouse IgG2a, kappa, V domains shown, mIgG2a; also called CACNG1 mIgG2a antibody) VH: QVQLVESGGGVVQPGRSLRLSCEASGITFRNYGMHWVRQAPGKGLEWVAVMWYDGSNKYYADSVKGRFTISRDNSKNTVYLQMNSLRAEDTAVYYCARRGHIATAAPFDYWGQGTLVTVSS VL: DIQMTQSPSSLSASVGDRVTISCRASQSISSYLNWYQQKPGKAPKVLMYAASSLQSGVPSRFSGSGSGTDFTLTISSLQPEDFATYYCQQSYSTPPITFGQGTRLEIKR")
16

Next:
Lookup: Query: mAb bound at 300 nM; subject: REGN9908 (antibody, mouse IgG2b, V domains shown, mIgG2b) VH: EVQLLESGGGLAQPGGSLRLSCAASGFTFSSYAMSWVRQAPGKGLEWVSSVSGSGGTTYYAASVKGRFTVSRDNSKKTLYLQMNSLRAEDTAVYYCGKGGYCSSSGCRHYGMDVWGQGTTVTVSA VL: QSVLTQPPSASGTPGQRVAISCSGSNSNIGNNYLYWYQQIPGTTPKLLIYRNNQRPSGVPDRFSASKSGTSASLAISGLRSGDEADYYCAAWDDSLSGYVFGTGTKVTVLG
Found: 21

FYI, the data here is from patent US20240182561A1.
